# tgt: Cytochrome P450 2C19 (Homo sapiens) (UniProt P33261)
# Sequence (P33261 whole entry, looked up): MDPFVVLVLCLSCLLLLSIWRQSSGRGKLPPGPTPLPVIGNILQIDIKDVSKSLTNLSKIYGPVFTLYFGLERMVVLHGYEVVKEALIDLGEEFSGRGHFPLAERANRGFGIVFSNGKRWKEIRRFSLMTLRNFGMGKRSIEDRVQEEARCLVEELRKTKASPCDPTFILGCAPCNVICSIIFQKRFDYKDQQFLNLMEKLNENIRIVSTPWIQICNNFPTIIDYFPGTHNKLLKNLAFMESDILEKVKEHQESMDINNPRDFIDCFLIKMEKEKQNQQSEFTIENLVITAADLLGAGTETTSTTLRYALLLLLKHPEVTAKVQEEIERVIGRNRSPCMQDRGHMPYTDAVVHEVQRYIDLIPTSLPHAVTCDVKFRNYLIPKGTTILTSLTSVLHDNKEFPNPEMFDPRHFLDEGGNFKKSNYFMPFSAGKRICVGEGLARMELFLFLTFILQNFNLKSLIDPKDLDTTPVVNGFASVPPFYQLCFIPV
# experiment-summary: blockers of cytochrome P450 2C19 activity – biochemical, luminescence, ADME assay, primary screen (AID 778)
# test-context: CYP2C19 Supersomes, luciferin-H EGE luminescence, 30 min; at 5 µM; hits give high values
In all, about 96,000 compounds went through this assay and about 20,000 (21%) were called active. A selection follows.
Use 10% as the dividing line for inhibition, with the line itself on the condition met side and lower values as condition not met.

Is the recorded value of inhibition equal to or greater than 10% for this compound? "CCOC(=O)Cc1csc(NC(NC(=O)OCC)(C(F)(F)F)C(F)(F)F)n1"
condition met

# check: inhibition of CC1=NC2(CCCc3c2no[n+]3[O-])N(O)C1(C)C (stereo not drawn) is greater than or equal to 10%
condition not met

Please tell me: is the compound CSc1ccc(NC(=O)N2CC(C)OC(C)C2)cc1 (stereo not drawn) at or over 10% in terms of inhibition?
condition met

Record "COc1ccc(NC(=O)ON=C2c3ccccc3-c3ccccc32)cc1" ; criterion: inhibition no lower than 10%. Met?
condition met

Given "CC(=O)c1cc(C#N)c(SCC(=O)C(C)(C)C)nc1C" , state whether its inhibition is at least 10%.
condition met

Dear colleague, could you confirm whether "c1csc(-c2nc(-c3ccncc3)no2)c1" has inhibition at or above 10%?
condition met

Is inhibition at least 10%? Consider "COc1nc(-c2ccc(Cl)cc2)ccc1-c1noc(-c2cccs2)n1"
condition not met

Textbook exercise: given the entry "CCOc1nc(-c2ccc(OC)cc2)ccc1-c1noc(-c2cc(OC)c(OC)c(OC)c2)n1" , state whether its inhibition is greater than or equal to 10%.
condition not met
